Test system: Plasmopara viticola
protocol: Activity against Peronospora of grapevines caused by Plasmopara viticola, protective use
Format: in vivo
run_conditions: 250 ppm spray, grapevine cultivar Müller-Thurgau, visual rating of leaf undersides, untreated 90%
readout_label: Infection [%] at 250 ppm (%)

# molecule, assayed_system, test_value
records = [
    ("CCCCc1c(-c2ccc(F)cc2C)c(C)nn2cnnc12", "Plasmopara viticola", 0),
    ("Cc1nn2cnnc2c(C2CCCCC2)c1-c1ccc(F)cc1F", "Plasmopara viticola", 0),
    ("CCCC(C)c1c(-c2ccc(F)cc2F)c(C)nn2cnnc12 (single isomer, unassigned) [Example 18]", "Plasmopara viticola", 10),
    ("Cc1cc(F)ccc1-c1c(C)nn2cnnc2c1C1CCCCC1", "Plasmopara viticola", 0),
    ("CCCC(C)c1c(-c2ccc(F)cc2F)c(C)nn2cnnc12 (single isomer, unassigned) [Example 21]", "Plasmopara viticola", 3),
    ("Cc1nn2cnnc2c(CCC(C)(C)C)c1-c1ccc(F)cc1F", "Plasmopara viticola", 0),
    ("Cc1ccc(-c2c(C)nn3cnnc3c2CCC(C)(C)C)c(C)c1", "Plasmopara viticola", 3),
    ("Cc1ccc(-c2c(C)nn3cnnc3c2C2CCCCC2)c(C)c1", "Plasmopara viticola", 20),
    ("Cc1cc(F)ccc1-c1c(C)nn2cnnc2c1CC(C)C", "Plasmopara viticola", 0),
    ("Cc1nn2cnnc2c(CC(C)C)c1-c1ccccc1", "Plasmopara viticola", 20),
    ("Cc1ccc(-c2c(C)nn3cnnc3c2CCC(C)(C)C)c(F)c1", "Plasmopara viticola", 3),
    ("CCCCc1c(-c2ccc(F)cc2F)c(C)nn2cnnc12", "Plasmopara viticola", 0),
    ("Cc1nn2cnnc2c(CC(C)C)c1-c1ccc(F)cc1F", "Plasmopara viticola", 0),
    ("CCCCc1c(-c2ccc(C)cc2F)c(C)nn2cnnc12", "Plasmopara viticola", 0),
]
